target_or_test_system: FAAH (Mus musculus, UniProt O08914)
Construct: Proteomes (mouse brain membrane fraction or cell lysates); from tissue; host or cells: mouse brain membrane fraction (or cell lysates, not specified)
test_description: In vitro competitive activity-based protein profiling (gel-based, FP-Rh or HT-01 probe)
Format: biochemical
reported_conditions: mouse brain membrane fraction or cell lysates, 30 min preincubation at 37° C.; read-out: Mouse (IC50 value, nM) FAAH
assay_metric: IC50

> print(dat)
                                   compound                target.or.test.system  assay.metric  readout.value
1  O=C(N1CCN(Cc2ccc(C(F)(F)F)cc2)CC1)n1cc(Cl)cn1 [Example 213]  FAAH (Mus musculus, UniProt O08914)          IC50       < 100 nM

Please report IC50 for the following compound: O=C(NC1CC1)c1cnn(C(=O)N2CCN(C(c3ccc(Cl)cc3)c3ccc(Cl)cc3)CC2)c1 [Example 49]
> 1000 nM

Please report IC50 for the following compound: O=C(N1CCN(Cc2ccccc2C(F)(F)F)CC1)n1cc(C(F)(F)F)cn1 [Example 279]
< 100 nM

Please report IC50 for the following compound: O=C(N1CCN(Cc2cccc(N3CCCC3)c2)CC1)n1cc(C(F)(F)F)cn1 [Example 273]
< 100 nM

Please report IC50 for the following compound: O=C(N1CCN(Cc2ccc(-c3ccccc3)cc2Cl)CC1)n1cc(Cl)cn1 [Example 139]
< 100 nM

====

target_or_test_system: ABHD6 (Mus musculus)
Construct: Proteomes (mouse brain membrane fraction or cell lysates); from tissue; host or cells: mouse brain membrane fraction (or cell lysates, not specified)
test_description: In vitro competitive activity-based protein profiling (gel-based, FP-Rh or HT-01 probe)
Format: biochemical
reported_conditions: 1 μM inhibitor; read-out: % Inhibition at 1 μM, C = ABHD6
assay_metric: inhibition at 1 µM

Some entries whose results are on file:
> print(dat)
                                   compound  readout.value
1  Cc1cnn(C(=O)N2CCN(C(=O)c3ccccc3)CC2)c1 [Example 164]          < 25%
2  O=C(N1CCN(Cc2ccc(C(F)(F)F)cc2N2CCCC2)CC1)n1cc(-c2ccccc2C(F)(F)F)cn1 [Example 115]          > 75%

Please report inhibition at 1 µM for the following compound: CCN(Cc1ccccc1OC)C(=O)n1cc(Cl)cn1 [Example 127]
< 25%

Please report inhibition at 1 µM for the following compound: CC(C)n1cc(CN2CCN(C(=O)n3cc(Cl)cn3)CC2)c(-c2ccccc2)n1 [Example 101]
> 75%

====

target_or_test_system: FAAH (Mus musculus)
Construct: Proteomes (mouse brain membrane fraction or cell lysates); from tissue; host or cells: mouse brain membrane fraction (or cell lysates, not specified)
Sequence (O08914 1-579): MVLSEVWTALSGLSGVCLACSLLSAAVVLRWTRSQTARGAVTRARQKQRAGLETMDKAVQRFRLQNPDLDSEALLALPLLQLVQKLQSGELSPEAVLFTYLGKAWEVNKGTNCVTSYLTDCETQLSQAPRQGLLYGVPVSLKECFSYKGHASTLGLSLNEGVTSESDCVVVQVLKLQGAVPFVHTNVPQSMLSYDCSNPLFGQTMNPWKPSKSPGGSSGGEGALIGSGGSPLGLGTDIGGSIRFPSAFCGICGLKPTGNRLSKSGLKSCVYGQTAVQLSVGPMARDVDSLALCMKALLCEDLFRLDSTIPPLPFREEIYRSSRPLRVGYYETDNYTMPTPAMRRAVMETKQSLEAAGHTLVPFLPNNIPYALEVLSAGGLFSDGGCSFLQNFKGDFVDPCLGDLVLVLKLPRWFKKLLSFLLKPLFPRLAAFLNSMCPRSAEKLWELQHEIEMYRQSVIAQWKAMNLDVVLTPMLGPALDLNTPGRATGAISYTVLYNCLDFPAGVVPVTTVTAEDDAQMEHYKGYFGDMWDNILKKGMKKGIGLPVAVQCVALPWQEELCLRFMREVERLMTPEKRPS
test_description: In vitro competitive activity-based protein profiling (gel-based, FP-Rh or HT-01 probe)
Assay type: biochemical
reported_conditions: 10 μM inhibitor; read-out: % Inhibition at 10 μM, B = FAAH
# inhibition at 10 µM annotations

Some entries whose results are on file:
> print(dat)
                              sample.smiles  readout.value
1              Cc1cnn(C(=O)NCCCCc2ccccc2)c1          < 25%
2  O=C(N1CCN(c2ccccc2Cl)CC1)n1cc(C(F)(F)F)cn1          > 75%
3  O=C(N1CCN(Cc2ccc(OCc3ccccc3)cc2)CC1)n1cccn1          > 75%

Please report inhibition at 10 µM for the following compound: `CN(Cc1cccc(-c2ccncc2)c1)C(=O)n1cc(C(F)(F)F)cn1`
> 75%

Please report inhibition at 10 µM for the following compound: `Cc1cc(N2CCN(C(=O)n3cc(C(F)(F)F)cn3)CC2)c2ccccc2n1`
> 75%

====

target_or_test_system: ABHD6 (Mus musculus, UniProt Q8R2Y0)
Construct: Proteomes (mouse brain membrane fraction or cell lysates); from tissue; host or cells: mouse brain membrane fraction (or cell lysates, not specified)
Sequence (Q8R2Y0 whole entry): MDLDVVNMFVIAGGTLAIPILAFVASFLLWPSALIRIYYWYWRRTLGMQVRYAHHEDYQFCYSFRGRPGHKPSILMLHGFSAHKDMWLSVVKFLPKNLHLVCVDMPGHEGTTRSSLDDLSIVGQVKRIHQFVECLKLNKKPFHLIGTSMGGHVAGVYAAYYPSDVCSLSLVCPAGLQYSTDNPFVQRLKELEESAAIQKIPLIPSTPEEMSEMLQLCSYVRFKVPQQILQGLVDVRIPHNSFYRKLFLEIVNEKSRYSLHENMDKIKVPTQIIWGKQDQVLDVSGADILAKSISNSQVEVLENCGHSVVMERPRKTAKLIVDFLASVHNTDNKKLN
test_description: In vitro competitive activity-based protein profiling (gel-based, FP-Rh or HT-01 probe)
Assay type: biochemical
reported_conditions: 1 μM inhibitor; read-out: % Inhibition at 1 μM, C = ABHD6
assay_metric: inhibition at 1 µM

Some entries whose results are on file:
> print(dat)
                              sample.smiles                 target.or.test.system        assay.metric  readout.value
1  O=C(N1CCN(Cc2cccnc2)CC1)n1cc(-c2ccccc2)cn1  ABHD6 (Mus musculus, UniProt Q8R2Y0)  inhibition at 1 µM          > 75%
2  O=C(N1CCN(Cc2ccc3ccccc3c2)CC1)n1cc(Br)cn1  ABHD6 (Mus musculus, UniProt Q8R2Y0)  inhibition at 1 µM          > 75%
3   O=C(N1CCN(Cc2ccc(Cl)cc2)CC1)n1cc(Cl)cn1  ABHD6 (Mus musculus, UniProt Q8R2Y0)  inhibition at 1 µM          > 75%
4  NC(=O)c1cnn(C(=O)N2CCN(Cc3ccc(Cl)cc3)CC2)c1  ABHD6 (Mus musculus, UniProt Q8R2Y0)  inhibition at 1 µM          > 75%

Give inhibition at 1 µM only, for `O=C(N1CCN(Cc2ccc(OCc3ccccc3)cc2)CC1)n1cccn1` , using ABHD6 (Mus musculus, UniProt Q8R2Y0) data.
< 25%

Give inhibition at 1 µM only, for `Cc1cnn(C(=O)N2CCN(Cc3ccc4ccccc4c3)CC2)c1` , using ABHD6 (Mus musculus, UniProt Q8R2Y0) data.
> 75%

Give inhibition at 1 µM only, for `O=C(N1CCN(Cc2ccc3ccccc3c2)CC1)n1cc(I)cn1` , using ABHD6 (Mus musculus, UniProt Q8R2Y0) data.
> 75%

Give inhibition at 1 µM only, for `O=C(N1CCCN(Cc2ccccc2)CC1)n1cc(Cl)cn1` , using ABHD6 (Mus musculus, UniProt Q8R2Y0) data.
25 to 75%

Give inhibition at 1 µM only, for `O=C(N1CCN(Cc2nccs2)CC1)n1cc(-c2ccccc2)cn1` , using ABHD6 (Mus musculus, UniProt Q8R2Y0) data.
> 75%

Give inhibition at 1 µM only, for `O=C(N1CCN(c2ccccc2N2CCOCC2)CC1)n1cc(C(F)(F)F)cn1` , using ABHD6 (Mus musculus, UniProt Q8R2Y0) data.
> 75%

Give inhibition at 1 µM only, for `CC(C)c1cnn(C(=O)N2CCN(Cc3c(N4CCCC4)cccc3C(F)(F)F)CC2)c1` , using ABHD6 (Mus musculus, UniProt Q8R2Y0) data.
> 75%

Give inhibition at 1 µM only, for `CS(=O)(=O)N1CCCN(C(=O)n2cc(Cl)cn2)CC1` , using ABHD6 (Mus musculus, UniProt Q8R2Y0) data.
> 75%

Give inhibition at 1 µM only, for `CN(CCN(C)C(=O)n1cc(C#N)cn1)C(=O)c1ccccc1` , using ABHD6 (Mus musculus, UniProt Q8R2Y0) data.
< 25%

Give inhibition at 1 µM only, for `O=C(N1CCCN(Cc2ccccc2)CC1)n1cc(C(F)(F)F)cn1` , using ABHD6 (Mus musculus, UniProt Q8R2Y0) data.
> 75%

====

target_or_test_system: ABHD6 (Mus musculus)
Construct: Proteomes (mouse brain membrane fraction or cell lysates); from tissue; host or cells: mouse brain membrane fraction (or cell lysates, not specified)
test_description: In vitro competitive activity-based protein profiling (gel-based, FP-Rh or HT-01 probe)
Assay type: biochemical
reported_conditions: 1 μM inhibitor; gel-based competitive ABPP; read-out: % Inhibition at 1 μM, C = ABHD6
# inhibition at 1 µM annotations

Some entries whose results are on file:
> print(dat)
                              sample.smiles  target.or.test.system        assay.metric  readout.value
1  Cc1cnn(C(=O)N2CCN(Cc3cccc(OCc4ccccc4)c3)CC2)c1   ABHD6 (Mus musculus)  inhibition at 1 µM          > 75%
2         CCN(Cc1cccc(OC)c1)C(=O)n1cc(C)cn1   ABHD6 (Mus musculus)  inhibition at 1 µM          < 25%

Please report inhibition at 1 µM for the following compound: `CCN(Cc1cccc(Cl)c1)C(=O)n1cc(C)cn1`
< 25%

Please report inhibition at 1 µM for the following compound: `CCN(Cc1ccc(OC)cc1)C(=O)n1cc(C#N)cn1`
< 25%

Please report inhibition at 1 µM for the following compound: `CCN(Cc1cccc(N2CCOCC2)c1)C(=O)n1cc(C(F)(F)F)cn1`
25 to 75%

Please report inhibition at 1 µM for the following compound: `O=C(N1CCN(Cc2ccccc2N2CCCC2)CC1)n1cc(C(F)(F)F)cn1`
> 75%

Please report inhibition at 1 µM for the following compound: `O=C(N1CCN(Cc2ccccc2N2CCOCC2)CC1)n1cc(C(F)(F)F)cn1`
> 75%

Please report inhibition at 1 µM for the following compound: `N#Cc1cnn(C(=O)N2CCCN(Cc3ccc(OCc4ccccc4)cc3)CC2)c1`
< 25%

Please report inhibition at 1 µM for the following compound: `O=C(c1cnn(C(=O)N2CCN(Cc3ccc(-c4ccccc4)cc3OCc3ccccc3)CC2)c1)N1CCCC1`
> 75%
